inhibition at 12.5 µM values for the compounds below.
Biological target: egg albumin (Gallus gallus, UniProt P01012)
Sequence (P01012 2-386): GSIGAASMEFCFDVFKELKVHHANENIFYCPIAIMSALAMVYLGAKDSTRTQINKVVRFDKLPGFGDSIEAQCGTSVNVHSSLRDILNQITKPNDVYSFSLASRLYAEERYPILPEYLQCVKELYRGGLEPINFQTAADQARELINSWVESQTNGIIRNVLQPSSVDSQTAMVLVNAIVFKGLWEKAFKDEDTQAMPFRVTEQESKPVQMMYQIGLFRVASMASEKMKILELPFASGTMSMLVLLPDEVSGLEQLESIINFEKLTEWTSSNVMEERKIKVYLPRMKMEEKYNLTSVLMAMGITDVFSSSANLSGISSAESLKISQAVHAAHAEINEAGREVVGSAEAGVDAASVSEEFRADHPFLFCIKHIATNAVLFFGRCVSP
Assay: Albumin denaturation assay
Format: biochemical, hen
Settings: 12.5 µM; mean ± SD (n = 3); read-out: Percentage inhibition of denaturation of albumin
Give the value in % but do not write % after it.

Recorded inhibition at 12.5 µM, per entry:
Please list inhibition at 12.5 µM recorded for the compound C=CCc1ccc(OCC(=O)Nc2ccc([N+](=O)[O-])cc2)c(OC)c1
4.44

Note inhibition at 12.5 µM for the compound shown: C=CCc1ccc(OCC(=O)Nc2ccccc2Cl)c(OC)c1
13.6

***
Give recorded inhibition at 12.5 µM. C=CCc1ccc(OCC(=O)Nc2cccc(Cl)c2)c(OC)c1
9.47

Respond only with inhibition at 12.5 µM recorded for O=C(O)Cc1ccccc1Nc1c(Cl)cccc1Cl [Standard Diclofenac, Diclofenac, reference compound]
15.3

Name the recorded inhibition at 12.5 µM of the item C=CCc1ccc(OCC(=O)Nc2ccccc2)c(OC)c1 in your answer.
5.32

Give the measured inhibition at 12.5 µM for C=CCc1ccc(OCC(=O)Nc2ccccc2C)c(OC)c1
5.32

Provide only the value of recorded inhibition at 12.5 µM for C=CCc1ccc(OCC(=O)Nc2cccc(C(F)(F)F)c2)c(OC)c1
8.79

---

Here the recorded Raw Data is given for each entry.
Molecular target: human PPARγ- LBD (Homo sapiens)
Construct: a mixture of a human PPARγ- LBD labelled with glutathione S-transferase (GST)
Test: Lanthascreen TR-FRET PPARγ competitive binding assay
Settings: TR-FRET, 0.000256 µM
Answer in RLU, number only, no unit symbol.

Use the examples below as a reference point.
Output measured Raw Data for this item: C=CCc1ccc(OCC(=O)Nc2cccc(Cl)c2)c(OC)c1
1.860

Give the reported Raw Data for this compound. C=CCc1ccc(OCC(=O)Nc2ccccc2)c(OC)c1
1.915

Let me know recorded Raw Data for C=CCc1ccc(OCC(=O)Nc2ccccc2C)c(OC)c1 , thanks.
1.88

// fetch Raw Data given entry C=CCc1ccc(OCC(=O)Nc2ccccc2Cl)c(OC)c1
1.801

Further cases:
Provide only the value of recorded Raw Data for C=CCc1ccc(OCC(=O)Nc2cccc(C(F)(F)F)c2)c(OC)c1
2.04

# return recorded Raw Data for input C=CCc1ccc(OCC(=O)Nc2ccc([N+](=O)[O-])cc2)c(OC)c1
1.849

---

Attribute: Raw Data
Target: human PPARγ- LBD (Homo sapiens, UniProt P37231)
Construct: a mixture of a human PPARγ- LBD labelled with glutathione S-transferase (GST)
Assay: Lanthascreen TR-FRET PPARγ competitive binding assay
Conditions: TR-FRET, 0.0064 µM
The reply should consist of the numeric value with the unit placed after it.

Please look at this molecule and report its Raw Data: C=CCc1ccc(OCC(=O)Nc2ccccc2C)c(OC)c1 [Compound 1c]
1.886 RLU

Name the recorded Raw Data of the item C=CCc1ccc(OCC(=O)Nc2cccc(Cl)c2)c(OC)c1 [Compound 1e] in your answer.
1.927 RLU

Query Raw Data for C=CCc1ccc(OCC(=O)Nc2ccc([N+](=O)[O-])cc2)c(OC)c1 [Compound 1b]
1.857 RLU

Quick one: give measured Raw Data for C=CCc1ccc(OCC(=O)Nc2ccccc2Cl)c(OC)c1 [Compound 1f]
1.826 RLU

Complete the entry with Raw Data for C=CCc1ccc(OCC(=O)Nc2ccccc2)c(OC)c1 [Compound 1a]
1.92 RLU

Please give measured Raw Data of the following entry: C=CCc1ccc(OCC(=O)Nc2cccc(C(F)(F)F)c2)c(OC)c1 [Compound 1d]
2.061 RLU

---

Tested on: human red blood cells (HRBC)
Assay: HRBC membrane stabilization method
Conditions: 100 µM; mean ± SD (n = 3)
1 (yes) if HRBC membrane stabilization (percentage protection against HRBC lysis) is below 50%. 0 (no) if not; exact matches included in 0 (no).

As a guide, the following entries are already answered.
Does the reported HRBC membrane stabilization (percentage protection against HRBC lysis) of C=CCc1ccc(OCC(=O)Nc2ccc([N+](=O)[O-])cc2)c(OC)c1 stay below 50%?
1 (yes)

Is the reported HRBC membrane stabilization (percentage protection against HRBC lysis) for C=CCc1ccc(OCC(=O)Nc2ccccc2)c(OC)c1 strictly below 50%?
1 (yes)

Below 50% on HRBC membrane stabilization (percentage protection against HRBC lysis)? Entry O=C(O)Cc1ccccc1Nc1c(Cl)cccc1Cl [Standard Diclofenac, Diclofenac, reference compound]
0 (no)

Hello, I'm reviewing records and need to know if HRBC membrane stabilization (percentage protection against HRBC lysis) of C=CCc1ccc(OCC(=O)Nc2ccccc2Cl)c(OC)c1 is below 50%. Could you check?
0 (no)

Is HRBC membrane stabilization (percentage protection against HRBC lysis) strictly under 50% for the entry C=CCc1ccc(OCC(=O)Nc2ccccc2C)c(OC)c1 ?
1 (yes)

# next molecule below
State whether 50% exceeds HRBC membrane stabilization (percentage protection against HRBC lysis) recorded for C=CCc1ccc(OCC(=O)Nc2cccc(C(F)(F)F)c2)c(OC)c1 .
1 (yes)

---

Molecular target: human PPARγ- LBD (Homo sapiens)
Construct: a mixture of a human PPARγ- LBD labelled with glutathione S-transferase (GST)
Sequence (P37231 238-503 limits assumed): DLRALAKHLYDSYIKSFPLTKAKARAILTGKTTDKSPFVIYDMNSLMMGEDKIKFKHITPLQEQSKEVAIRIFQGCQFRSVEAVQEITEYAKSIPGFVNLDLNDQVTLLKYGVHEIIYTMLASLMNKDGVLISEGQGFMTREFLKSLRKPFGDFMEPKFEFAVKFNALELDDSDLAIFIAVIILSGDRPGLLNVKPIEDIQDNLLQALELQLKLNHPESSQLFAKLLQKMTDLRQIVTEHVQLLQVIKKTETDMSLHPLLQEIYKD
Assay: Lanthascreen TR-FRET PPARγ competitive binding assay
Settings: TR-FRET, 100 µM
Protocol: Using the Lanthasreen TR-FRET assay, the synthesized compounds were first preliminary tested for the PPARγ binding affinity. […] A chemical under test displaces the tracer from PPAR-LBD, which lowers the TR-FRET ratio and decreases the FRET signal Figure 8 [33]. A multimode low-volume proxy plate reader was used to read the plates after one hour of incubation. […]
Parameter: Raw Data. Scope: all listed entries.
Supply the numeric figure in RLU, leaving out any unit text.

Consider the worked cases shown below.
// output Raw Data; input C=CCc1ccc(OCC(=O)Nc2ccccc2)c(OC)c1 [Compound 1a] ; system human PPARγ- LBD (Homo sapiens)
0.245

// fetch Raw Data; item: C=CCc1ccc(OCC(=O)Nc2ccccc2Cl)c(OC)c1 [Compound 1f] ; system: human PPARγ- LBD (Homo sapiens)
0.7757

Further cases:
State, for human PPARγ- LBD (Homo sapiens), measured Raw Data of the compound listed here: C=CCc1ccc(OCC(=O)Nc2ccc([N+](=O)[O-])cc2)c(OC)c1 [Compound 1b]
0.421

Send back human PPARγ- LBD (Homo sapiens) Raw Data of C=CCc1ccc(OCC(=O)Nc2cccc(C(F)(F)F)c2)c(OC)c1 [Compound 1d] only.
0.6527

Look up and report Raw Data, with human PPARγ- LBD (Homo sapiens) as system, for C=CCc1ccc(OCC(=O)Nc2cccc(Cl)c2)c(OC)c1 [Compound 1e]
0.834

Specify Raw Data for C=CCc1ccc(OCC(=O)Nc2ccccc2C)c(OC)c1 [Compound 1c] , system human PPARγ- LBD (Homo sapiens).
0.06866

---

Entries and their measured Raw Data follow.
Biological target: human PPARγ- LBD (Homo sapiens)
Construct: a mixture of a human PPARγ- LBD labelled with glutathione S-transferase (GST)
Assay: Lanthascreen TR-FRET PPARγ competitive binding assay
Settings: TR-FRET, 0.00128 µM
Your answer is read as RLU, so omit the unit and give the number.

Recall and state the measured Raw Data for C=CCc1ccc(OCC(=O)Nc2ccccc2)c(OC)c1 [Compound 1a] .
1.916

Identify measured Raw Data corresponding to C=CCc1ccc(OCC(=O)Nc2ccc([N+](=O)[O-])cc2)c(OC)c1 [Compound 1b]
1.865

Identify measured Raw Data associated with C=CCc1ccc(OCC(=O)Nc2cccc(Cl)c2)c(OC)c1 [Compound 1e]
1.903

Report Raw Data for C=CCc1ccc(OCC(=O)Nc2ccccc2C)c(OC)c1 [Compound 1c]
1.88

In one line, give reported Raw Data of the entry C=CCc1ccc(OCC(=O)Nc2cccc(C(F)(F)F)c2)c(OC)c1 [Compound 1d] .
2

Consider the compound C=CCc1ccc(OCC(=O)Nc2ccccc2Cl)c(OC)c1 [Compound 1f] and give its recorded Raw Data.
1.764

---

Reported Raw Data - Background values follow for various compounds
Target: human PPARγ- LBD (Homo sapiens)
Construct: a mixture of a human PPARγ- LBD labelled with glutathione S-transferase (GST)
Experiment: Lanthascreen TR-FRET PPARγ competitive binding assay
Settings: TR-FRET, 0.032 µM
Form entry: value (RLU) — number only.

# count of solved cases: 5
Report Raw Data - Background for C=CCc1ccc(OCC(=O)Nc2ccccc2C)c(OC)c1
1.657

Hello, please tell me recorded Raw Data - Background for this one: C=CCc1ccc(OCC(=O)Nc2cccc(C(F)(F)F)c2)c(OC)c1
1.875

Read off the recorded Raw Data - Background for C=CCc1ccc(OCC(=O)Nc2cccc(Cl)c2)c(OC)c1
1.752

Using known records, supply Raw Data - Background for C=CCc1ccc(OCC(=O)Nc2ccccc2Cl)c(OC)c1
1.99

Give the value of Raw Data - Background reported for the following: C=CCc1ccc(OCC(=O)Nc2ccc([N+](=O)[O-])cc2)c(OC)c1
1.568

// below: Raw Data - Background requested for another compound
Report Raw Data - Background, nothing else, for this compound: C=CCc1ccc(OCC(=O)Nc2ccccc2)c(OC)c1
1.823
